Catalogue of MFI at 8 nM readings, one per entry.
Molecular target: T1, human CTLA-4 (Y201V), full length, on transfected cells (human, UniProt P16410 36-223)
T1 construct: whole, on cells; also called hCTLA-4; HEK293-hCTLA-4 (Y201V)
T1 sequence (looked up): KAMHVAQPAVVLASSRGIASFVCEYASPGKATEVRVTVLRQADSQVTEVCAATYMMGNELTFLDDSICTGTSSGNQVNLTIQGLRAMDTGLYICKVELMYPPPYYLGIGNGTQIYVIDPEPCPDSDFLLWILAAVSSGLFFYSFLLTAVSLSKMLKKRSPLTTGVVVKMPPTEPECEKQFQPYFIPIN
Assay: FACS, human CTLA-4 expressing cells
Measure name: MFI at 8 nM

Binder	Measure name	Quantitative result
97A8D1 fully human CTLA-4 antibody (human IgG1, kappa) (antibody, V domains shown, also called mAb49; mAb049) VH: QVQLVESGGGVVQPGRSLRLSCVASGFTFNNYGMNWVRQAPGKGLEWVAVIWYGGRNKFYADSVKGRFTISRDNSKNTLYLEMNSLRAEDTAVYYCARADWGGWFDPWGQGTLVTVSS VL: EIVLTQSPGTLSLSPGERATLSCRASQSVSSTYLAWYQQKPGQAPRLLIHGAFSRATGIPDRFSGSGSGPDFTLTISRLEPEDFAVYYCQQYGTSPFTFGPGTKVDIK	MFI at 8 nM	919
31C12F3 fully human CTLA-4 antibody (human IgG1, kappa) (antibody, V domains shown, also called mAb010) VH: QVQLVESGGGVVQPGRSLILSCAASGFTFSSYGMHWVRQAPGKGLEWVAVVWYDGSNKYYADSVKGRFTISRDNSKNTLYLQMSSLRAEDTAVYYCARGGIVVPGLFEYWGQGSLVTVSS VL: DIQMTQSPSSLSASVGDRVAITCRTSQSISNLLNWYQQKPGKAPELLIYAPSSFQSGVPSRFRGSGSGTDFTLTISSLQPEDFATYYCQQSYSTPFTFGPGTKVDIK	MFI at 8 nM	756
92C8B6 fully human CTLA-4 antibody (human IgG1, kappa) (antibody, V domains shown, also called mAb42; mAb042) VH: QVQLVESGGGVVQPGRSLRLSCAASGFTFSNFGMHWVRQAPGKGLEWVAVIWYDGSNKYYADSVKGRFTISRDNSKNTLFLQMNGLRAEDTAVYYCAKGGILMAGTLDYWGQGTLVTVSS VL: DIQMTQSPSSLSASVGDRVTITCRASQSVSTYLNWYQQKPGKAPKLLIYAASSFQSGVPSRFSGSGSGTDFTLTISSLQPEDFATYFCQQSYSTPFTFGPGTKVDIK	MFI at 8 nM	827
